Test: Half-life in Human Liver Microsomes (HLM)
Conditions: human, human liver microsomes (HL101), pH 7.4
VALUE TYPE: half-life at 1 μM (min)

Examples with answers:
COMPOUND	DISPLAY UNIT	half-life at 1 μM
Cc1cc([C@@H](C)NC(=O)C2CC2c2ccc(C(C)(C)C)nc2)ccc1NS(C)(=O)=O (some centres unmarked)	min	44
Cc1cc([C@@H](C)NC(=O)C2CC2c2ccc(C(C)(C)C)nc2N2CCCC2)ccc1NS(C)(=O)=O (some centres unmarked)	min	5
COC1(c2ccc(C(F)(F)F)cc2)CC1C(=O)N[C@H](C)c1ccc(NS(C)(=O)=O)c(C)c1 (some centres unmarked)	min	35.6
C[C@@H](NC(=O)C1CC1(C)c1ccc(SC(F)(F)F)cc1)c1ccc(NS(C)(=O)=O)c(CO)c1 (some centres unmarked)	min	30
Cc1cc([C@@H](C)NC(=O)C2CC2(C)c2ccc(OC(F)(F)F)cc2)ccc1NS(C)(=O)=O (some centres unmarked) [Example 16]	min	53

(a) Cc1cc(CNC(=O)C2CC2(C)c2ccc(C(C)(C)C)cc2)ccc1NS(C)(=O)=O (centres unmarked)
(b) Cc1cc([C@@H](C)NC(=O)[C@H]2C[C@@H]2c2cc(F)c(C(C)(C)C)c(F)c2)ccc1NS(C)(=O)=O
(c) Cc1cc([C@@H](C)NC(=O)C2CC2(C)c2ccc(C(F)(F)F)c(F)c2)ccc1NS(C)(=O)=O (some centres unmarked)
(d) Cc1cc(CNC(=O)C2CC2c2ccc(C(C)(C)C)c(F)c2)ccc1NS(C)(=O)=O (centres unmarked)
(e) Cc1cc([C@@H](C)NC(=O)C2CC2(C)c2ccc(OC(F)(F)F)cc2)ccc1NS(C)(=O)=O (single isomer, unassigned) [Example 28]
Request: Please give the order of these compounds when sorted by half-life at 1 μM, largest value leading. State the ranking by listing the labels in the requested order.
Result: e, c, b, d, a
(e: 61 min, c: 34 min, b: 15 min, d: 9 min, a: 5 min)
